test system: SK-OV-3; test: NCI tumour cell line growth inhibition, 48 h
Calls of active or inactive are those of the source. Cut-off read from the data, not from the text of the source: active = GI50 up to about 1.1 µM and inactive = higher.
// GI50 lookup, one value per entry

# molecule, GI50
rows = [
    ("O=C(N/C(=C\\c1cccc([N+](=O)[O-])c1)c1nc2ccccc2[nH]1)c1ccccc1", "> 100 µM (inactive)"),
    ("O=C(Cn1c2ccc(Br)cc2c2nc3ccccc3nc21)NNC(=S)NC1CCCCC1", "21.7 µM (inactive)"),
    ("CC(=O)Nc1ccc(-c2nnc(SCC(=O)Nc3ccc([N+](=O)[O-])cc3)o2)cc1", "17.8 µM (inactive)"),
    ("Fc1cccc(F)c1C1SCc2nc3ccc(Cl)cc3n21 (configuration not stated)", "> 100 µM (inactive)"),
    ("Cc1sc(N/N=C2\\C(=O)Nc3ccccc32)nc1-c1ccccc1", "14.9 µM (inactive)"),
    ("COC1=CC(O)(CC(N)=O)c2ccccc2C1=O (configuration not stated)", "> 100 µM (inactive)"),
    ("CCOc1cc(NC(C)=O)ccc1C(=O)NN1C(=O)/C(=C/c2ccco2)N=C1c1ccccc1", "> 100 µM (inactive)"),
    ("O=c1[nH]c(=O)c2ncn(-c3ccc([N+](=O)[O-])cn3)c2[nH]1", "> 100 µM (inactive)"),
    ("O=C1c2ccccc2-c2c1c(-c1ccc([N+](=O)[O-])cc1)nc1ccc3ccccc3c21", "> 100 µM (inactive)"),
    ("CC1C(NNC(N)=O)Oc2cc3c(cc2C1c1ccccc1O)OCO3 (configuration not stated)", "41.4 µM (inactive)"),
    ("C=CCNC(=O)ON1C(=O)CCC1=O", "> 100 µM (inactive)"),
    ("CN1CCN(Cn2nc(COc3ccccc3Cl)n(/N=C/c3ccc(-c4ccc(Cl)cc4Cl)o3)c2=S)CC1", "35.5 µM (inactive)"),
    ("CN(C)CCOC(=O)c1ccc(N)cc1", "56.6 µM (inactive)"),
    ("COc1cc(C2SCCCCCCCCCCSC(c3ccc(O)c(OC)c3)SCCCCCCCCCCS2)ccc1O (configuration not stated)", "> 100 µM (inactive)"),
    ("CSc1[nH]nc(N)c1C(=O)Nc1ccc(Cl)cc1", "> 100 µM (inactive)"),
    ("COc1cccc2c1CCc1cc3c(N)nc(N)nc3nc1-2", "17.7 µM (inactive)"),
    ("CC1(C)CC(=O)C2=C(C1)NC1=C(C(=O)CC(C)(C)C1)C2c1ccc([N+](=O)[O-])cc1", "> 100 µM (inactive)"),
    ("O=C(NN1C(=O)C(Cl)C1c1cccc([N+](=O)[O-])c1)c1ccccc1O (configuration not stated)", "> 100 µM (inactive)"),
    ("CC(=O)Nc1ccc2c(c1)/C(=N/c1ccc(C(=O)O)cc1)c1ccccc1-2", "> 100 µM (inactive)"),
    ("O=C(Cc1nc2ccccc2o1)C(=O)Nc1ccc(Cl)cc1Cl", "> 100 µM (inactive)"),
    ("CCSc1nc(-c2ccc(OC)cc2)c(C#N)c(=O)n1C1OCC(OC(C)=O)C(OC(C)=O)C1OC(C)=O (configuration not stated)", "> 100 µM (inactive)"),
    ("Nc1nc(Cl)cc(NCC2(O)CCCC2)n1", "> 100 µM (inactive)"),
]

====

// GI50 lookup, one value per entry
system: KM12; assay: NCI tumour cell line growth inhibition, 48 h
The source made the active and inactive calls. No stated cut-off is given here; in the data, active = GI50 up to about 1.1 µM and inactive = higher.

# compound, GI50
records = [
    ("CN1CC[C@]2(C)c3ccc(O)cc3CC3CCCC1C32C (some centres not stated)", "> 100 µM (inactive)"),
    ("CC1=[N+](C)CCN1C", "> 100 µM (inactive)"),
    ("CC1SCc2nc3ccccc3n21 (configuration not stated)", "> 100 µM (inactive)"),
    ("COc1ccc([N+](=O)[O-])cc1[I+]c1cc([N+](=O)[O-])ccc1OC", "22.7 µM (inactive)"),
    ("N#CC(C(=O)/C(=N\\NC(N)=O)C(C#N)c1ccc(Cl)cc1)c1ccc(Cl)cc1 (configuration not stated)", "> 100 µM (inactive)"),
    ("CCc1nc2ccc(/N=N/N(C)C)cc2[nH]1", "> 100 µM (inactive)"),
    ("Cc1nc(C)c(N2CCN(S(N)(=O)=O)CC2)c(O)n1", "> 100 µM (inactive)"),
    ("COc1cc(/C=C2\\C(=O)N(C(=O)Cc3ccccc3)N=C2C)cc(OC)c1OC", "> 100 µM (inactive)"),
    ("CC[C@]1(c2ccc3c(c2)OCO3)C=[N+]([O-])O[C@H](OC2CCCC2(c2ccccc2)c2ccccc2)[C@@H]1OC(C)=O (some centres not stated)", "1.77 µM (inactive)"),
    ("CC(C)(C)c1cc2c(O)c(c1)COCc1cc(C(C)(C)C)cc(c1O)COCc1cc(C(C)(C)C)cc(c1O)COC2", "64.6 µM (inactive)"),
    ("O=C(/C(=N\\Nc1ccc([N+](=O)[O-])cc1[N+](=O)[O-])NC12CC3CC(CC(C3)C1)C2)C(Br)C(=O)c1ccccc1 (configuration not stated)", "2.78 µM (inactive)"),
    ("O=C(NCCCCCCO)c1cccc2cc3ccccc3nc12", "18.7 µM (inactive)"),
]

====

system: LOX IMVI; assay: NCI tumour cell line growth inhibition, 48 h
Active and inactive are the calls of the source. No stated cut-off is given here; in the data, active = GI50 up to about 1.1 µM and inactive = higher.
Outcomes: label 1 = active, label 0 = inactive

# compound, test_target, category_label
rows = [
    ("COc1cc2c(cc1Oc1c(Oc3c(O)c(OC)cc4c3C(CC(C)C)N(C)CC4)c(OC)cc3c1C(CC(C)C)N(C)CC3)C(CC(C)C)N(C)CC2 (stereo unspecified)", "LOX IMVI", "label 1"),
    ("COc1ccc(/C=C/c2ccnc3ccccc23)cc1OC", "LOX IMVI", "label 0"),
    ("N#C/C(=C\\c1ccc2[nH]ccc2c1)C(=O)NCCCCNC(=O)/C(C#N)=C/c1ccc2[nH]ccc2c1", "LOX IMVI", "label 0"),
    ("Cc1nn(C(=O)Cc2ccccc2)c2c1C(c1ccc(N(C)C)cc1)SC(=N)N2 (stereo unspecified)", "LOX IMVI", "label 0"),
    ("CCCNC(C#N)c1ccc(OCCCCCCCCCCOc2ccc(C(C#N)NCCC)cc2)cc1 (stereo unspecified)", "LOX IMVI", "label 0"),
    ("CCOC(=O)/C(C(=S)NCc1ccccc1)=C(/N)N1CCCC1", "LOX IMVI", "label 0"),
    ("CCO/N=C(/CC)c1ccc(Br)s1", "LOX IMVI", "label 0"),
    ("CCN(CC)C(=O)c1c(Cl)cc(N(CC)CC)oc1=O", "LOX IMVI", "label 0"),
    ("CCCCCCCCCCCC(=O)OCCOCCOCCOCCOCCOCc1ccc(OC)cc1", "LOX IMVI", "label 0"),
    ("O=C(CC(Cl)(Cl)C(Cl)(Cl)Cl)c1ccccc1", "LOX IMVI", "label 0"),
    ("CC(C)C1CN(C(=O)OCc2ccccc2)C2N1C(=O)C2(C)OCc1ccccc1 (stereo unspecified)", "LOX IMVI", "label 0"),
]

====

// GI50 lookup, one value per entry
test system: HL-60; assay: NCI tumour cell line growth inhibition, 48 h
The source made the active and inactive calls. Cut-off read from the data, not from the text of the source: active = GI50 up to about 1.1 µM and inactive = higher. Where a SMILES comes first, the peptide text is derived from it. [ ]: non-standard residue; d: D form. ξ: configuration not given here. ξThz(5,5-Me2) = CC1(C)SCNC1C(=O)O

# compound, GI50
data = [
    ("COc1cc(/C=N/N=C2NCCCN2)ccc1O", "> 100 µM (inactive)"),
    ("COc1cc(-c2c(C#N)c(N)c(C#N)c3c2COc2ccccc2-3)cc(OC)c1OC", "> 100 µM (inactive)"),
    ("CCOC(=O)CCC(C(=O)OCC)n1nnc2cc(Nc3c(C)[n+]([O-])c4ccc(Cl)cc4[n+]3[O-])ccc21 (stereo not given)", "45 µM (inactive)"),
    ("Nc1nc(N)c2c(CCc3ccc(C(=O)N[C@@H](CCC(=O)O)C(=O)O)cc3)ccnc2n1", "< 0.01 µM (active)"),
    ("COc1cc(/C=C2\\C(=O)N(C(=O)Cc3ccccc3)N=C2C)cc(OC)c1OC", "> 100 µM (inactive)"),
    ("O=C(/C=C/CC(O)(c1ccccc1)c1ccccc1)Nc1ccccc1Cl", "> 100 µM (inactive)"),
    ("CC(C)(C)c1ccc(O)c(C(O)c2ccccn2)c1 (stereo not given)", "45.1 µM (inactive)"),
    ("CCOC1=C(c2ccccc2)N2CCCCC2O1 (stereo not given)", "1.5 µM (inactive)"),
    ("O=C(O)c1ccccc1/C=C1/Cc2ccc3c(c2C1=O)CCC3", "20.1 µM (inactive)"),
    ("OCCCc1cnco1", "> 100 µM (inactive)"),
    ("CC(C)C1CC2C(=O)N(c3ccccc3)C(=O)C2c2[nH]c3ccccc3c21 (stereo not given)", "7.45 µM (inactive)"),
    ("NC1C2C=CC(C2)C1C(=O)O (stereo not given)", "> 100 µM (inactive)"),
    ("CCCCCCCCCCCC(=O)OCCOCCOCCOCCOCCOCc1ccc(OC)cc1", "14.8 µM (inactive)"),
    ("CSCC[C@H](NC(=O)[C@H](CC(C)C)NC(=O)[C@H](Cc1c[nH]cn1)NC(=O)CNC(=O)C1N(C(=O)[C@@H](C)NC(=O)[C@H](Cc2c[nH]c3ccccc23)NC(=O)[C@H](CCC(N)=O)NC(=O)[C@@H](N)CC(N)=O)CSC1(C)C)C(N)=O (stereo not given in full) (H-NQW[dA][ξThz(5,5-Me2)]GHLM-NH2)", "> 25 µM (inactive)"),
    ("CC(=O)Nc1ccccc1-c1nc2ccccc2nc1-c1ccccc1", "> 100 µM (inactive)"),
    ("CC(=O)Nc1ccc2c(c1)/C(=N/c1ccc(C(=O)O)cc1)c1ccccc1-2", "< 0.01 µM (active)"),
    ("Nc1c(C(=O)Nc2ccc(C3=NCCN3)cc2)cccc1C(=O)Nc1ccc(C2=NCCN2)cc1", "> 100 µM (inactive)"),
    ("O=C1CSC(c2c[nH]c3ccccc23)N1c1cccc(Cl)c1 (stereo not given)", "36.6 µM (inactive)"),
    ("C/C(CC(=O)NCCc1ccccc1)=N\\NS(=O)(=O)c1ccc(C)cc1", "> 100 µM (inactive)"),
    ("O=c1[nH]c2ccc(CC(=S)N3CCOCC3)cc2s1", "53.6 µM (inactive)"),
    ("O=c1sc2c(s1)-c1sc(=O)sc1SS2", "> 100 µM (inactive)"),
    ("O=c1c2ccccc2sc2c(CO)ccc(NCCN3CCCCC3)c12", "3.08 µM (inactive)"),
    ("CSC(=N/N=C(\\C)c1ccc(S(=O)(=O)N(C)c2ccccc2)cc1)SC", "> 43.5 µM (inactive)"),
    ("COC(=O)c1nc(-c2ccc(Cl)c(Cl)c2)nc2ccc(Cl)cc12", "> 100 µM (inactive)"),
    ("COC(=O)C1=C(N)C2=C(N)Oc3ccccc3C2CC1=C(C#N)C#N (stereo not given)", "29.2 µM (inactive)"),
    ("COc1cc2c(cc1OC)C(C#N)(Cc1ccccc1)N(C(=O)c1ccccc1)C=C2 (stereo not given)", "36.4 µM (inactive)"),
    ("COC(=O)C1=C(SC)SC2(C(=O)OC)C3C=C(C)C4C(N13)C42C(=O)OC (stereo not given)", "> 100 µM (inactive)"),
    ("C=C1CN(C(=O)c2cc3cc(OC)c(OC)c(OC)c3[nH]2)c2cc([N+](=O)[O-])ccc21", "> 100 µM (inactive)"),
    ("O=C(CC(Cl)(Cl)C(Cl)(Cl)Cl)c1ccccc1", "8.99 µM (inactive)"),
    ("CC1(C)CC(=O)C2=C(C1)NC1=C(C(=O)CC(C)(C)C1)C2c1ccc([N+](=O)[O-])cc1", "> 100 µM (inactive)"),
    ("CC(C)(C)c1ccc2c(c1)S(=O)(=O)Nc1ccccc1NS(=O)(=O)c1cc(C(C)(C)C)ccc1OCCOCCOCCO2", "> 100 µM (inactive)"),
    ("Cc1cccc2c(N)c3cccc(C(=O)NCC[N+](C)(C)Cc4ccc([N+](=O)[O-])n4C)c3nc12", "4.6 µM (inactive)"),
    ("COc1ccc(C(=O)C(c2ccc(OC)cc2)C2(O)C(=O)Nc3c2ccc(Cl)c3C)cc1 (stereo not given)", "> 100 µM (inactive)"),
    ("CCOC(=O)C(Cc1ccc(N(CCCl)CCCl)cc1)NC(=O)C(Cc1ccccc1)NC=O (stereo not given)", "0.0638 µM (active)"),
    ("CC(=O)Nc1ccc(C2=N/C(=C\\c3ccc(Cl)c(Cl)c3)C(=O)O2)cc1", "> 100 µM (inactive)"),
    ("O=C(NCc1ccncc1)C1COc2cc(-c3cc(=O)c4ccccc4o3)ccc2O1 (stereo not given)", "> 100 µM (inactive)"),
    ("CC(C)C(/C=C/c1ccc(Br)cc1)=N\\NC(N)=O", "> 100 µM (inactive)"),
    ("CC(=O)CC(=O)Nc1ccc2ccccc2c1", "> 100 µM (inactive)"),
    ("Cc1cc2nc3c(C)c4ccccc4c(C)n3c2cc1C", "3.22 µM (inactive)"),
    ("CC(CC(=O)N1C(=O)C(C)(C)[C@@H](O)[C@H]1CC(C)C(Cl)(Cl)Cl)C(Cl)(Cl)Cl (stereo not given in full)", "> 100 µM (inactive)"),
]

Attribution: ChEMBL document CHEMBL1201862
